Biological target: NMDAR2A expressing HEK cell membranes (Homo sapiens, UniProt Q12879)
Construct: expressed in transfected cells; host or cells: HEK cells (membrane extract)
Sequence (Q12879 23-1464, other chains not shown): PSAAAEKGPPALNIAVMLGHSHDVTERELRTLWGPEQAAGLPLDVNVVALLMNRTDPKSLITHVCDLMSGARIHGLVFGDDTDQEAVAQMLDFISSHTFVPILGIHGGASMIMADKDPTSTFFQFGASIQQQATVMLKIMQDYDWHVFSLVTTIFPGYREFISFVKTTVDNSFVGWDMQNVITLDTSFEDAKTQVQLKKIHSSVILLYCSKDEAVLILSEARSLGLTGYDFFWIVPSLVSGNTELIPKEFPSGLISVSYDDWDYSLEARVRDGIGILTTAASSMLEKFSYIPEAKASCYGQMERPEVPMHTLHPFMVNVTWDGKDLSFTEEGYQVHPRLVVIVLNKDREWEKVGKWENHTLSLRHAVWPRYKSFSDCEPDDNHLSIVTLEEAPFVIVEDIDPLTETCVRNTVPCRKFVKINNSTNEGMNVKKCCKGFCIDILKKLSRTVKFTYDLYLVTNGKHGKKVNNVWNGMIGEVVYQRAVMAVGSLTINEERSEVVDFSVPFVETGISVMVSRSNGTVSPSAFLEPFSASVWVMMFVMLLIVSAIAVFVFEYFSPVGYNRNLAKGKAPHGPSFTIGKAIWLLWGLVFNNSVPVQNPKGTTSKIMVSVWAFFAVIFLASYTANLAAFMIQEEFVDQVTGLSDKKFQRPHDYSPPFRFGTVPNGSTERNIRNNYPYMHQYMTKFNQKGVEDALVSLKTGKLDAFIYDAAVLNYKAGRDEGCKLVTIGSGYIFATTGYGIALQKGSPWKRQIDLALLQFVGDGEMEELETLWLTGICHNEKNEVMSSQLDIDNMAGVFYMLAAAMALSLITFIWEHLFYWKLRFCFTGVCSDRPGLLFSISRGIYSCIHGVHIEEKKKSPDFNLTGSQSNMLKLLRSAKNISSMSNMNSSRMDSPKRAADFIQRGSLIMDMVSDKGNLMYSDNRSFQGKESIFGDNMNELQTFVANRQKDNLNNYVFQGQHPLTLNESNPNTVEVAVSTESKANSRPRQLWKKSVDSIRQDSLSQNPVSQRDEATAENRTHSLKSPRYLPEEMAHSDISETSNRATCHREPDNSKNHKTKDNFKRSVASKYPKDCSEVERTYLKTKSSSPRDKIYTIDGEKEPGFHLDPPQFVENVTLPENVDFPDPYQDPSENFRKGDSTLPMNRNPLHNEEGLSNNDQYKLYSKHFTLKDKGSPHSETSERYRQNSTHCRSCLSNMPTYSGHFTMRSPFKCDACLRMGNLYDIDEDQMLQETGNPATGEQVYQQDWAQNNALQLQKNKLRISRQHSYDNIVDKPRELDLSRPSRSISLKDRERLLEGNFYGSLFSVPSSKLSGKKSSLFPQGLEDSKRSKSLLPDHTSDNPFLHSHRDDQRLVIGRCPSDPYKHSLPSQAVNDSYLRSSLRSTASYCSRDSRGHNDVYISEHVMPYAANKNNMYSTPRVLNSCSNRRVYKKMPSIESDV
Test: NMDAR agonist assay, [3H]MK-801 binding, NMDAR2A
Assay type: biochemical
Conditions: 50 μM glutamate; relative to 1 mM glycine
VALUE KIND: NMDAR2A: % maximal [3H]MK-801 binding relative to 1 mM glycine

Below, 4 compounds whose answers are already recorded.
- COMPOUND: "O=C1NCC12CCC1(CNC1=O)N2Cc1ccccc1 (single isomer, unassigned) [AC-1]"
  RESULT: "+ (<100%=+)"
- COMPOUND: "O=C1NCC12CCC1(CNC1=O)N2 (single isomer, unassigned) [AJ]"
  RESULT: "+ (<100%=+)"
- COMPOUND: "O=C1NCC12CN(Cc1ccc(F)cc1)C1(CNC1=O)C2 (single isomer, unassigned) [DN]"
  RESULT: "+ (<100%=+)"
- COMPOUND: "C[C@@H](O)[C@H](NCC1CCC2(CNC2=O)N1C(=O)OC(C)(C)C)C(=O)N(C)C (single isomer, unassigned) [BS]"
  RESULT: "− (−=0)"

Inquiry: Look up NMDAR2A: % maximal [3H]MK-801 binding relative to 1 mM glycine of CC(C)(C)OC(=O)N1C2(CCC13CNC3=O)CNC2=O (single isomer, unassigned) [AA-3] and report it.
Reply text: − (−=0)

Inquiry: Using the record for CC(C)(C)OC(=O)N1C(C(N)=O)CCC12CN(OCc1ccccc1)C2=O (single isomer, unassigned) [BG] , state its measured NMDAR2A: % maximal [3H]MK-801 binding relative to 1 mM glycine.
Reply text: + (<100%=+)

Inquiry: Check the records and state NMDAR2A: % maximal [3H]MK-801 binding relative to 1 mM glycine for C[C@@H](O)[C@H](NCC1CCC2(CN(OCc3ccccc3)C2=O)N1C(=O)OC(C)(C)C)C(=O)N(C)C (single isomer, unassigned) [BQ]
Reply text: − (−=0)

Inquiry: State its NMDAR2A: % maximal [3H]MK-801 binding relative to 1 mM glycine for this compound: C[C@@H](O)[C@H](NC(=O)C1CCC2(CNC2=O)N1Cc1ccccc1)C(N)=O (single isomer, unassigned) [AM]
Reply text: + (<100%=+)

Inquiry: Specify NMDAR2A: % maximal [3H]MK-801 binding relative to 1 mM glycine for CC(C)C(=O)N1C(C(=O)N[C@H](C(N)=O)[C@@H](C)O)CCC12CNC2=O (single isomer, unassigned) [AS] and stop.
Reply text: + (<100%=+)

Inquiry: Return reported NMDAR2A: % maximal [3H]MK-801 binding relative to 1 mM glycine. Input compound: C[C@@H](O)[C@H](NCC1CCC2(CNC2=O)N1C(=O)OC(C)(C)C)C(=O)N(C)C (single isomer, unassigned) [BT]
Reply text: + (<100%=+)

Inquiry: Let me know recorded NMDAR2A: % maximal [3H]MK-801 binding relative to 1 mM glycine for O=C1NCC12CCC1(CNC1=O)N2Cc1ccccc1 (single isomer, unassigned) [AC-3] , thanks.
Reply text: + (<100%=+)

Inquiry: Fill in NMDAR2A: % maximal [3H]MK-801 binding relative to 1 mM glycine for record O=C1NCC12CN(Cc1ccccc1)C1(CNC1=O)C2 (single isomer, unassigned) [DP]
Reply text: + (<100%=+)
